Biological target: MMP-2 (Homo sapiens (Human), UniProt P08253)
Sequence (P08253 110-660): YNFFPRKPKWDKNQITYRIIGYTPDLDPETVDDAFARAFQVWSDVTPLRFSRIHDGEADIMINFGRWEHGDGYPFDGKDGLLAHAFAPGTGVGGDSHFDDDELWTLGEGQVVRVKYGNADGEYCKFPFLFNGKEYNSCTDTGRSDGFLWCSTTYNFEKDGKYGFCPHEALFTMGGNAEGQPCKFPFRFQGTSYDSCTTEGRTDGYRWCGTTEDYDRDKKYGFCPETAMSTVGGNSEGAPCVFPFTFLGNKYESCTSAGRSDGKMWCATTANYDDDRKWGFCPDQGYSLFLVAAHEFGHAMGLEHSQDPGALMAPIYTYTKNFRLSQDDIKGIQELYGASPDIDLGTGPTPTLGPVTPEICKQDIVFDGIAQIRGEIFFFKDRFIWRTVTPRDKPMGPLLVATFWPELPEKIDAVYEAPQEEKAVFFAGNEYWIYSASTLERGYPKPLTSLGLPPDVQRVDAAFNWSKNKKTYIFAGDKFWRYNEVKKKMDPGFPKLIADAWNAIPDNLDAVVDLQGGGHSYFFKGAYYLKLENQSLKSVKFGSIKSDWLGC
Experiment: MMP-2 inhibition assay (fluorimetric, DQ gelatin substrate)
Conditions: recombinant MMP-2 (CHO cells) 85 ng/mL, DQ gelatin 50 μg/mL, 2 hours at room temperature, pH 7.6
pIC50: −log10 of the molar value. Where a SMILES comes first, the peptide text is derived from it. [ ]: non-standard residue; d: D form. The star is where a group is joined. ξ: configuration not given here. NMeIle(3ξ) = CCC(C)[C@H](NC)C(=O)O; NMeQ = CN[C@@H](CCC(N)=O)C(=O)O; Ile(3ξ) = CCC(C)[C@H](N)C(=O)O; Dab = NCC[C@H](N)C(=O)O; Hexanoyl = CCCCCC(=O)*; Bz = O=C(c1ccccc1)*; NHOH = ON*
MEASUREMENT_LABEL: pIC50

Use the examples below as a reference point.
COMPOUND: CCC(C)[C@@H](C(=O)N[C@@H](CCNC(=O)c1cc(F)cc(F)c1)C(=O)NO)N(C)C(=O)[C@@H]1CCCN1C(C)=O (stereo partly drawn) [Example 2]
pIC50: 6.62
--
COMPOUND: CCCCCC(=O)N1CCC[C@H]1C(=O)N(C)[C@H](C(=O)N[C@@H](CCNC(=O)c1ccccc1)C(=O)NO)C(C)CC (stereo partly drawn) [Example 15] (Hexanoyl-Pro-[NMeIle(3ξ)]-[Dab](Bz)-{NHOH})
pIC50: 6.55
--
COMPOUND: CCC(C)[C@H](NC(=O)[C@H](Cc1c[nH]c2ccccc12)NC(=O)[C@H](CCC(N)=O)NC(C)=O)C(=O)NO (stereo partly drawn) [Example C18, reference compound] (Ac-Gln-Trp-[Ile(3ξ)]-{NHOH})
pIC50: 3.15

a: CCC(C)[C@@H](C(=O)N[C@@H](CCNC(=O)c1cc(F)cc(F)c1)C(=O)NO)N(C)C(=O)[C@@H]1CC(F)(F)CN1C(=O)CCCOc1ccccc1 (stereo partly drawn) [Example 10]
b: CC(=O)N1CCC[C@H]1C(=O)N(C)[C@@H](CCC(N)=O)C(=O)N[C@@H](Cc1c[nH]c2ccccc12)C(=O)NO [Example C20, reference compound] (Ac-Pro-[NMeQ]-Trp-{NHOH})
Which has the smaller recorded pIC50, a or b ? Provide the label of your selected option as the answer.
b

====

Molecular target: MMP-9 (Homo sapiens)
Sequence (P14780 107-707 limits assumed): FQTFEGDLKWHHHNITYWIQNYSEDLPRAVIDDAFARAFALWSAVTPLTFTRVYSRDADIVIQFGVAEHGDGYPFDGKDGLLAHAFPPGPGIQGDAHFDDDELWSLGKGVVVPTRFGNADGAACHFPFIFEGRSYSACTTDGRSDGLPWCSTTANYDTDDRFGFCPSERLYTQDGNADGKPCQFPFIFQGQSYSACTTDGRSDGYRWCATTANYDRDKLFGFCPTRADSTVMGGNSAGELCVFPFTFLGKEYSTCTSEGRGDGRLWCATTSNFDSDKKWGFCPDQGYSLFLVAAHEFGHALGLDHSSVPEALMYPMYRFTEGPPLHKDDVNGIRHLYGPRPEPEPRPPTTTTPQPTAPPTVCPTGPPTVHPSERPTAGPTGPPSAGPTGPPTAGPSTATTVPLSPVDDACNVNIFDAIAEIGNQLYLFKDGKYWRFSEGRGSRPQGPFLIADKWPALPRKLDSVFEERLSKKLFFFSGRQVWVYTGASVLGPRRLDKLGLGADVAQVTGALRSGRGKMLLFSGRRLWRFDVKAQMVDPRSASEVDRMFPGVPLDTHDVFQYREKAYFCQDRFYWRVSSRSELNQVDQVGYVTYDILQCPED
Assay: MMP-9 inhibition assay (fluorimetric, DQ gelatin substrate)
Conditions: recombinant MMP-9 (Merck-Millipore for examples 1 to 9 and comparative examples; Enzo for examples 10 to 16), DQ gelatin 50 μg/mL, 4 hours at room temperature, pH 7.6
Where a SMILES comes first, the peptide text is derived from it. [ ]: non-standard residue; d: D form. The star is where a group is joined. ξ: configuration not given here. Pro(trans-4-F) = O=C(O)[C@@H]1C[C@@H](F)CN1; Benzoyl(3,5-F2) = O=C(c1cc(F)cc(F)c1)*; NMeIle(3ξ) = CCC(C)[C@H](NC)C(=O)O; NMeF = CN[C@@H](Cc1ccccc1)C(=O)O; Dab = NCC[C@H](N)C(=O)O; Hexanoyl = CCCCCC(=O)*; Bz = O=C(c1ccccc1)*; NHOH = ON*
MEASUREMENT_LABEL: IC50 (nM)
Give just the number in nM; leave the unit off.

MOLECULE: CCC(C)[C@@H](C(=O)N[C@@H](CCNC(=O)c1cc(F)cc(F)c1)C(=O)NO)N(C)C(=O)[C@@H]1CCCN1C(=O)[C@H](Cc1ccccc1)N(C)C(C)=O (stereo partly drawn) [Example 11] (Ac-[NMeF]P[NMeIle(3ξ)][Dab](Benzoyl(3,5-F2))-{NHOH})
IC50 (nM): 71
--
MOLECULE: CCCCCC(=O)N1CCC[C@H]1C(=O)N(C)[C@H](C(=O)N[C@@H](CCNC(=O)c1cc(F)cc(F)c1)C(=O)NO)C(C)CC (stereo partly drawn)
IC50 (nM): 395

Moving on to the next molecule.
Please supply the value of reported IC50 for the item CCCCCC(=O)N1C[C@H](F)C[C@H]1C(=O)N(C)[C@H](C(=O)N[C@@H](CCNC(=O)c1ccccc1)C(=O)NO)C(C)CC (stereo partly drawn) [Example 16] (Hexanoyl-[Pro(trans-4-F)]-[NMeIle(3ξ)]-[Dab](Bz)-{NHOH})
10
